Source of measurements: patent US20240270857A1

Reported IC50 (M); hIL36γ; IL-8 production values are given for each entry in this list.
- system: T1, IL-36R naturally expressed on OVCAR8 cells and on normal human epidermal keratinocytes (NHK cells) (human, UniProt Q9HB29 20-575)
- T1 sequence (looked up): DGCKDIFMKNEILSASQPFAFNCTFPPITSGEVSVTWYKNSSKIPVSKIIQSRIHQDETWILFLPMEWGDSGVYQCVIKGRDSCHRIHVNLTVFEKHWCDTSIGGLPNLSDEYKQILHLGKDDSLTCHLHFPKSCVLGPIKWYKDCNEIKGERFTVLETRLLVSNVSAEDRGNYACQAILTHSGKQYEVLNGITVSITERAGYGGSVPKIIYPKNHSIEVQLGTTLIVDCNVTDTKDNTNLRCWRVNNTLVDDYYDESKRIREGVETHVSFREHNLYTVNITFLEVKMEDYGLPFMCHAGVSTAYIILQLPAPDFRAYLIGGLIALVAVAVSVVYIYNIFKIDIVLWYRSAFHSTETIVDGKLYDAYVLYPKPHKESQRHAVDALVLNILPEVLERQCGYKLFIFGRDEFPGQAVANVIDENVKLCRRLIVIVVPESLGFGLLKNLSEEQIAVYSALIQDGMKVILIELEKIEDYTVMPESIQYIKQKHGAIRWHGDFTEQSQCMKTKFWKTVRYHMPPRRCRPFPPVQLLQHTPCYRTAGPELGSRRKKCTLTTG
- assay: cell-based or functional assay
I only need the number, in M, no unit after it.

# binder, measured
measured = [
    ("hz84C4-1.4 (antibody, human IgG4 S228P, kappa, V domains shown, Humanized, human IgG4 / kappa) VH: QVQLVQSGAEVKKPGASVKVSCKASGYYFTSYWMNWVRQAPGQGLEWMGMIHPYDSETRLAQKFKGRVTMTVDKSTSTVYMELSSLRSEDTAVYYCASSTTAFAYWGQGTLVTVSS VL: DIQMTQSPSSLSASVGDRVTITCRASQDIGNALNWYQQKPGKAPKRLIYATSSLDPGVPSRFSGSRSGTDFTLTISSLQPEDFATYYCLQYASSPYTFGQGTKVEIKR", "7.75e-12"),
]

Tell us which IC50 (M); hIL36γ; IL-8 production value is on record for hz84C4-1.1 (antibody, human IgG4 S228P, kappa, V domains shown, Humanized, human IgG4 / kappa) VH: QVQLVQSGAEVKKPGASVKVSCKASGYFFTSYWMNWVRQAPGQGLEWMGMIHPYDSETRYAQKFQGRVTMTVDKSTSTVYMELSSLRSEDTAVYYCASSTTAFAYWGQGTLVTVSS VL: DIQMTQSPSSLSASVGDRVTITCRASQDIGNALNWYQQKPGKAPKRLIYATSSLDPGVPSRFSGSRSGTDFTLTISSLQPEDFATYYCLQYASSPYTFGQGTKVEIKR
4.77e-12
